Assay: Plasma pharmacokinetics, Phase I Study (LC-MS/MS of DFP-11207 metabolites)
Conditions: human, plasma, po, 330 mg/m2
observed-property: Cmax (ng/mL)
Enter your answer as a number in ng/mL; do not include the unit.

Record `CCOCn1cc(F)c(=O)[nH]c1=O` , field Cmax: 1310

Looking up O=c1[nH]cc(F)c(=O)[nH]1 [5-FU, 5-fluorouracil, reference compound] , I see its Cmax listed as 9.65

For record Oc1cc(O)c(Cl)cn1 [CDHP, 5-chloro-2,4-dihydroxypyridine] the listed Cmax is 90.4

Cmax recorded for this compound, `O=C(O)c1cc(O)nc(O)c1` , is 9.81

====

Assay: Plasma pharmacokinetics, Phase I Study (LC-MS/MS of DFP-11207 metabolites)
Conditions: human, plasma, po, 330 mg/m2
Please provide measured Tmax for the entries that follow.
Answer with a number only, understood to be in h.

get_value(item= `O=C(O)c1cc(O)nc(O)c1` , readout=Tmax) returns 8

Query `CCOCn1cc(F)c(=O)[nH]c1=O` yields Tmax of 48

Summary for this molecule, Oc1cc(O)c(Cl)cn1 [CDHP, 5-chloro-2,4-dihydroxypyridine] : Tmax is 24

Data point: O=c1[nH]cc(F)c(=O)[nH]1 [5-FU, 5-fluorouracil, reference compound] ; Tmax = 24

====

Record form. Attribute: urinary excretion. Fill in for each entry.
Assay: Urine pharmacokinetics, Phase I Study
Assay type: in vivo, human (patients)
Conditions: Cycle 1, 0–48 hours after the DFP-11207 dose of 330 mg/m^2/day
Give the value in % but do not write % after it.

get_value(item= `O=C(O)c1cc(O)nc(O)c1` , readout=urinary excretion) returns 0.07

Memo: O=c1[nH]cc(F)c(=O)[nH]1 [5-FU, 5-fluorouracil, reference compound] , reported urinary excretion: 0.12

Record summary for Oc1cc(O)c(Cl)cn1 [CDHP, 5-chloro-2,4-dihydroxypyridine] : reported urinary excretion = 1.98

# compound `CCOCn1cc(F)c(=O)[nH]c1=O` ; its urinary excretion = 0.71

====

Experiment: Plasma pharmacokinetics, Phase I Study (LC-MS/MS of DFP-11207 metabolites)
Conditions: human, plasma, po, 330 mg/m2
Exercise: for every item that follows, state its recorded AUC(0-t).
Numeric answer only, unit ng·h/mL assumed.

Recorded result, O=c1[nH]cc(F)c(=O)[nH]1 [5-FU, 5-fluorouracil, reference compound] , AUC(0-t): 220

Value of AUC(0-t) reported for the compound CCOCn1cc(F)c(=O)[nH]c1=O [EM-FU, 1-ethoxymethyl-5-fluorouracil] is 39900

Measured AUC(0-t) of Oc1cc(O)c(Cl)cn1 [CDHP, 5-chloro-2,4-dihydroxypyridine] : 2410

The recorded AUC(0-t) for O=C(O)c1cc(O)nc(O)c1 [CTA, citrazinic acid] is 254

====

Assay: Plasma pharmacokinetics, Phase I Study (LC-MS/MS of DFP-11207 metabolites)
Settings: human, plasma, po, 440 mg/m2
For each of the compounds below, state its AUC(0-t).
Please respond with the number in ng·h/mL and leave the unit unwritten.

Lab note: measured AUC(0-t) of `O=C(O)c1cc(O)nc(O)c1` was 388

So, Oc1cc(O)c(Cl)cn1 [CDHP, 5-chloro-2,4-dihydroxypyridine] ? Its AUC(0-t) was 2810

compound `CCOCn1cc(F)c(=O)[nH]c1=O` , AUC(0-t) observed: 49400

====

Test: Plasma pharmacokinetics, Phase I Study (LC-MS/MS of DFP-11207 metabolites)
Settings: human, plasma, po, 440 mg/m2
observed-property: Cmax (ng/mL)
Could you give me the number in ng/mL? Just the number is fine.

For reference, reported Cmax for O=c1[nH]cc(F)c(=O)[nH]1 [5-FU, 5-fluorouracil, reference compound] stands at 8.75

// CCOCn1cc(F)c(=O)[nH]c1=O [EM-FU, 1-ethoxymethyl-5-fluorouracil] : Cmax value = 1400

Value of measured Cmax for the entry O=C(O)c1cc(O)nc(O)c1 [CTA, citrazinic acid] : 9.72

Item: Oc1cc(O)c(Cl)cn1 [CDHP, 5-chloro-2,4-dihydroxypyridine] | Cmax: 93.6

====

So I've got a bunch of molecules here, and I need their concentration at 2 day (Cycle 1) values.
Test: Plasma pharmacokinetics, Phase I Study (LC-MS/MS of DFP-11207 metabolites)
Settings: human, plasma, po, 440 mg/m^2/day

Summary for this molecule, `CCOCn1cc(F)c(=O)[nH]c1=O` : concentration at 2 day (Cycle 1) is 948 to 1770 ng/mL

Input O=c1[nH]cc(F)c(=O)[nH]1 [5-FU, 5-fluorouracil, reference compound] . Output concentration at 2 day (Cycle 1): 3.39 to 13 ng/mL
